Data provenance: patent US20240148747A1

Tested on: YAP
Assay: TEAD-LUC activation assay (293A-TEAD-LUC reporter)
Type: cell-based
Details: Homo sapiens, Table 3; read-out: TEAD-LUC activation assay EC50
Attribute Measured: EC50 (nM)
Write the value in nM as a bare number.

>>> observed("O=C(NCCCn1nccn1)c1cc(-c2ccccc2)on1 [Compound 7]")
1130
>>> observed("O=C(NCCCNc1ccccc1)c1cc(-c2ccccc2)on1 [Compound 6]")
910
>>> observed("O=C(NCCCc1nccs1)c1cc(-c2ccc(F)cc2F)on1 [Compound 89]")
10000
>>> observed("O=C(NCCCc1nccs1)c1cc(-c2c(F)cccc2F)on1 [Compound 94]")
1000

Query (molecule): O=C(NCCCn1cccc1)c1cc(-c2ccc(F)cc2)on1 [Compound 2] ; field requested: EC50 1130

---

Assay: Cytotoxicity in the TEAD-LUC activation assay
Conditions: human
Attribute Measured: IC50

Some solved cases for reference:
>>> observed("CC(=O)c1ccc(NC(=O)c2cc(-c3ccncc3)[nH]n2)cc1 [Compound 153]")
"> 20 µM"
>>> observed("Cc1ccc(CCNC(=O)c2cc(-c3ccccc3)on2)cc1 [Compound 48]")
"> 20 µM"
>>> observed("O=C(NCCCc1ncno1)c1cc(-c2ccccc2)on1 [Compound 28]")
"> 20 µM"
>>> observed("CC(=O)N1CCN(CCCNC(=O)c2cc(-c3ccccc3)on2)CC1 [Compound 36]")
"> 20 µM"
>>> observed("O=C(Nc1cccc(-c2nccs2)c1)c1cc(-c2ccccc2)on1 [Compound 37]")
"> 20 µM"

Kindly review the next compound as well.
What value of measured IC50 is listed for O=C(c1cc(-c2ccccc2)on1)N1CCC(Nc2ncccn2)CC1 [Compound 137] ? > 20 µM

---

System: YAP
Test: TEAD-LUC activation assay (293A-TEAD-LUC reporter)
Assay type: cell-based
Details: Homo sapiens, Table 3; read-out: TEAD-LUC activation assay EC50
Attribute Measured: EC50

These recorded examples may help you get a feel for the data.
>>> observed("CC(C)(CNC(=O)c1cc(-c2ccccc2)on1)C(F)(F)F")
"> 20 µM"
>>> observed("O=C(NCCCc1ncco1)c1cc(-c2ccccc2)on1")
"3.8 µM"
>>> observed("O=C(NCCCn1ccnn1)c1cc(-c2ccc(OC(F)(F)F)cc2)on1")
"> 20 µM"
>>> observed("O=C(NCCc1cccc(F)c1)c1cc(-c2ccccc2)on1")
"> 20 µM"

Name the recorded EC50 for Cn1nc(C(=O)NCCCn2cccc2)cc1-c1ccccc1 . > 20 µM

So what does the record say about EC50 for O=C(NCCc1cccc(C(F)(F)F)c1)c1cc(-c2ccccc2)on1 ? > 20 µM

---

Test system: YAP
Test: TEAD-LUC activation assay (293A-TEAD-LUC reporter)
Format: cell-based
Conditions: Homo sapiens, presence of serum, high cell density; read-out: EC50 of luciferase activity induction in 293A-TEAD-LUC cells
Attribute Measured: EC50 (nM)
Your answer is read as nM, so omit the unit and give the number.

Would you mind telling me what EC50 value was observed for O=C(NCCCc1nccs1)c1cc(-c2ccccc2)on1 ? 1500

---

Tested on: YAP
Assay: TEAD-LUC activation assay (293A-TEAD-LUC reporter)
Format: cell-based
Settings: Homo sapiens, Table 4; read-out: TEAD-LUC activation assay EC50
A collection of molecules and their measured EC50
Numeric only. Scale: µM

Answered cases to consult:
>>> observed("O=C(NCCCN1CCCCCC1=O)c1cc(-c2ccccc2)on1")
3.97
>>> observed("O=C(NC1CCCc2ccccc21)c1cc(-c2ccccc2)n[nH]1 (centres unmarked)")
10
>>> observed("CN1CCN(CCNC(=O)c2cc(-c3ccccc3)on2)CC1")
6.04
>>> observed("CN1CCN(CCCNC(=O)c2cc(-c3ccccc3)on2)CC1")
2.68
>>> observed("Cc1ccc(N2CC(C(=O)NCc3n[nH]c4ccccc34)CC2=O)cc1 (centres unmarked)")
5
>>> observed("N#Cc1cccc(NC(=O)c2cc(-c3ccncc3)[nH]n2)c1")
2
>>> observed("O=C(Nc1cccc(N2CCOC2=O)c1)c1cc(-c2ccccc2)on1")
10
>>> observed("O=C(NCCCn1cccn1)c1cc(-c2ccccc2)on1")
1.6
>>> observed("O=C(NCCCn1ccnc1)c1cc(-c2ccccc2)on1")
2.97
>>> observed("Cc1cccc(C)c1NC(=O)c1n[nH]c(=O)c2ccccc12")
10

What EC50 value was documented for this molecule, CN1C(=O)CCc2cc(NC(=O)c3n[nH]c4ccccc34)ccc21 ? 2.5

Request the reported EC50 associated with Cc1ccc(NCCCNC(=O)c2cc(-c3ccccc3)on2)nc1 2.88

Which EC50 is listed for CN1C(=O)CCc2cc(NC(=O)c3ccncc3)ccc21 ? 15

---

System: YAP
Assay: TEAD-LUC activation assay (293A-TEAD-LUC reporter)
Format: cell-based
Conditions: Homo sapiens, Table 4; read-out: TEAD-LUC activation assay EC50
Attribute Measured: pEC50
Field pEC50 (float): negative decimal logarithm of the concentration in molar.

Example entries and their recorded answers appear below.
>>> observed("O=C(NCCN1CCOCC1)c1cc(-c2ccc(F)cc2)on1")
5.26
>>> observed("O=C(NCCN1CCOCC1)c1cc(-c2ccccc2)on1")
5.26
>>> observed("CCc1cccc(NC(=O)C2CCN(C(=O)c3cc(-c4ccncc4)[nH]n3)CC2)c1")
5.30

For the record COc1ccc2cc(NC(=O)c3n[nH]c4c3CCCCC4)cnc2c1 , what value of pEC50 is listed for YAP? 5.00

---

Examples of compounds with documented EC50 follow.
System: YAP
Experiment: TEAD-LUC activation assay (293A-TEAD-LUC reporter)
Assay type: cell-based
Conditions: Homo sapiens, Table 3; read-out: TEAD-LUC activation assay EC50
Lab book: enter the figure in nM, no units written.

>>> observed("O=C(NCCCc1ncno1)c1cc(-c2ccccc2)on1")
1670
>>> observed("O=C(NCCCc1nccs1)c1cc(C(F)(F)F)ccn1")
15000
>>> observed("O=C(NCCCCn1cccc1)c1cc(-c2ccccc2)on1")
1880
>>> observed("O=C(NCCCn1ccnn1)c1cc(-c2ccccc2F)on1")
5000

I would be grateful if you could share the reported EC50 for O=C(NCCc1nccs1)c1cc(-c2ccccc2)on1 . 2500

---

Each item that follows carries a reported pEC50.
Test system: YAP
Experiment: TEAD-LUC activation assay (293A-TEAD-LUC reporter)
Format: cell-based
Settings: Homo sapiens, Table 3; read-out: TEAD-LUC activation assay EC50
To interpret pEC50, take it as minus log10 of a concentration measured in moles per litre.

Worked cases, answers included:
>>> observed("O=C(NCCCN1CCOCC1)c1cc(-c2ccccc2F)on1 [Compound 100]")
5.00
>>> observed("O=C(NCCCc1nccs1)c1cc(-c2ccccc2)on1 [Compound 13]")
6.00
>>> observed("O=C(NCCCNc1cccc(F)c1)c1cc(-c2ccccc2)on1 [Compound 95]")
5.60

Entry under review: O=C(NCC(F)(F)F)c1cc(-c2ccccc2)on1 [Compound 63] . Reported pEC50? 5.12

---

Tested on: YAP
Test: TEAD-LUC activation assay (293A-TEAD-LUC reporter)
Type: cell-based
Conditions: Homo sapiens, Table 4; read-out: TEAD-LUC activation assay EC50
Attribute Measured: EC50

Completed entries (count: 2):
>>> observed("Cc1nc(CCCNC(=O)c2cc(-c3ccccc3)on2)sc1C [Compound 142]")
"4.71 µM"
>>> observed("CCN1C(=O)NC(=O)C12CCN(C(=O)c1cc(-c3ccccc3)on1)CC2 [Compound 125]")
"> 20 µM"

For the record O=C(NCCCN1CCOCC1)c1cc(-c2ccccc2)on1 [Compound 112] , what value of EC50 is listed for YAP? 6.71 µM

---

Experiment: Cytotoxicity in the TEAD-LUC activation assay
Conditions: human
pIC50: −log10 of the molar value.
Attribute Measured: pIC50

# example entries with known answers
>>> observed("O=C(NCCCc1nccs1)c1cncc(C(F)(F)F)c1")
"< 4.70"
>>> observed("O=C(NCCCn1ccnn1)c1cc(-c2cncnc2)on1")
"< 4.70"
>>> observed("O=C(NCCCn1nccn1)c1cc(-c2ccccc2)on1")
"< 4.70"

Look at this compound and give its reported pIC50. CC(C)(CNC(=O)c1cc(-c2ccccc2)on1)C(F)(F)F < 4.70

pIC50 for O=C(NCCCc1nccs1)c1cc(-c2c(F)cccc2F)on1 ? < 4.70

Quick check: pIC50 of CCN1CCN(C(CNC(=O)c2cc(-c3ccccc3)on2)c2ccc(OC)cc2)CC1 (centres unmarked) ? < 4.70

For the compound shown here, O=C(NC1CC(OC(F)F)C1)c1cc(-c2ccccc2)on1 (centres unmarked) , give the reported pIC50. < 4.70

Value lookup for pIC50; key = O=C(NCCN1CCOCC1)c1cc(-c2ccc(F)cc2)on1 < 4.70

Requested read-out: pIC50. Entry: C[C@@H](NC(=O)c1cc(-c2ccccc2)on1)c1ccccc1 < 4.70

Look up pIC50 for this compound: CN(C)CCN(C)C(=O)c1cc(-c2ccccc2)on1 < 4.70
